Provenance of the data: patent US8975276B2

Molecular target: PDE10 (Homo sapiens (Human))
Sequence (Q9Y233 whole entry): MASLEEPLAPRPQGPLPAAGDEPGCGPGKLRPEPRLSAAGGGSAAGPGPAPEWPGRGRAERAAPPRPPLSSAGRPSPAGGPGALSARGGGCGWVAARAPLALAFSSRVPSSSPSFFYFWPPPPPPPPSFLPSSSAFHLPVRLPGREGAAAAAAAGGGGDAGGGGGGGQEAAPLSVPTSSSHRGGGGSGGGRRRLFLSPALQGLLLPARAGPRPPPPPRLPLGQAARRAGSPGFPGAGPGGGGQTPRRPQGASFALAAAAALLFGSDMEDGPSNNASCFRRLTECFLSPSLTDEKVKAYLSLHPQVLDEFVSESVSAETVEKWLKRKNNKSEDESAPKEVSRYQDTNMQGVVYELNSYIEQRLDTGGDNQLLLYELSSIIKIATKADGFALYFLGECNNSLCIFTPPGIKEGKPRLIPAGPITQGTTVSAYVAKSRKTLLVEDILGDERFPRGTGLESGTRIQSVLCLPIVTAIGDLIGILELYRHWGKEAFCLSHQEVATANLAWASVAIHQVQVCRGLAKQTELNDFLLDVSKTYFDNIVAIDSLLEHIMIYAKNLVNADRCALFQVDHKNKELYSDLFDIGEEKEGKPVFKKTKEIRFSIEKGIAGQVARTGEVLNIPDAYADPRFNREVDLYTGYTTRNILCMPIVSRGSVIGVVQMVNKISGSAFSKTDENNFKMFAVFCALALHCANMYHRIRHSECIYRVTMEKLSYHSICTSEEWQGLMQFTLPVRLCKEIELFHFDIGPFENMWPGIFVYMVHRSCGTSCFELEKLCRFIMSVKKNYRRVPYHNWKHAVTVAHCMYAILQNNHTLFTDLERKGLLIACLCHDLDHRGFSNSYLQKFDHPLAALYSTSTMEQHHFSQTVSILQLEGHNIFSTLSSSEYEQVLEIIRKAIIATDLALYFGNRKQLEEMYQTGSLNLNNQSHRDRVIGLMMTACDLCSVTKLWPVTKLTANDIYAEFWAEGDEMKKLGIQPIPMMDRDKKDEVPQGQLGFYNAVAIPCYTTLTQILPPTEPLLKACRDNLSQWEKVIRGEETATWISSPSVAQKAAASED
Experiment: LE_PDE10A inhibition assay (scintillation proximity assay, cAMP hydrolysis)
Format: biochemical
Conditions: SPA, 3H-cAMP substrate at Km 25 nM; read-out: PDE10 IC50
Lab note: compare IC50 with 0.3 nM, writing label 1 if less and label 0 if equal or more.

* Cc1nccn2nc(-c3ccn4c(C)c(-c5ccccc5)nc4c3)nc12 | label 0
* Cc1ncc(C)n2nc(-c3ccn4cc(-c5cccc(N6CC[C@H](F)C6)c5)nc4c3)nc12 | label 1
* Cc1ncc(C)n2nc(-c3cc4nc(-c5ccccc5)cn4cc3N3CCCC3)nc12 | label 0
* Cc1ncc(C)n2nc(-c3ccn4cc(-c5ccccc5)nc4c3)nc12 | label 1
* Cc1ccc(-c2cn3ccc(-c4nc5c(C)ncc(C)n5n4)cc3n2)c(C)c1 | label 0
* Cc1ncc(C)n2nc(-c3ccn4cc(-c5ccccn5)nc4c3)nc12 | label 1
* Cc1ncc(C)n2nc(-c3ccn4cc(C5CC5)nc4c3)nc12 | label 0
* Cc1ncc(C)n2nc(-c3ccn4cc(-c5cccc(C6CC6)c5)nc4c3)nc12 | label 0
